Listed here: items and their measured melting point.

Below: 5 molecules and their reported melting point.
molecule	measure name	result
O=C(O)C1=Cc2cc(Cl)c(Oc3cccnc3)cc2OC1C(F)(F)F (stereo not given)	melting point	238 to 239 °C
c1ccc(Cn2c(NC3=NCCN3)nc3ccccc32)cc1	melting point	165 to 166 °C
O=C(c1cc(Cl)nc(Cl)c1)n1ccnc1	melting point	148 to 151 °C
COC(=O)c1cccc([N+](=O)[O-])c1-c1ccc2ccccc2c1OC	melting point	139 to 141 °C
CC(Oc1ccc(CNc2ccc(Cl)cc2)cc1)C(=O)O (stereo not given)	melting point	148 to 149 °C

Fill blank: measured melting point of the molecule CCOC(=O)[C@H](Cc1ccc(-c2c(OC)cc(CCO)cc2OC)cc1)NC(=O)c1c(F)cccc1F is ____. 115 to 117 °C

Fill blank: measured melting point of the molecule O=C(CNc1ccccc1Cl)Nc1c(Cl)ccc2nc(N3CC[C@@H](O)C3)ccc12 is ____. 215 to 219 °C

Fill blank: measured melting point of the molecule CC1(C)C=C(c2ccncc2O)c2ccccc2O1 is ____. 228 to 230 °C

Fill blank: measured melting point of the molecule CN1C(=O)CC[C@]2(C)c3ccc(-c4ccc(O)c(F)c4)cc3CC[C@@H]12 is ____. > 240 °C

Fill blank: measured melting point of the molecule Cc1cc(C)c(S(=O)(=O)n2c(CCC(=O)O)cc3cc(Cl)ccc32)c(C)c1 is ____. 132 to 134 °C

###

Listed here: items and their measured melting point.

Below: 4 compounds and their reported melting point.
sample smiles	melting point
Cc1ccc(S(=O)(=O)ON=C2CCCc3occ(C(=O)O)c32)cc1	155 to 165 °C
Cc1sc2cc(CCO)ccc2c1C(=O)O	166 to 169 °C
C[C@H]1[C@H](NC(=O)OC(C)(C)C)C(=O)N1OCc1ccccc1	78 °C
CC1(C)Sc2nccn2C1=NOC(=O)CNSCNC(=O)ON=C1n2ccnc2SC1(C)C	177 to 180 °C

# evaluate next
Fill blank: measured melting point of the compound CCOC(=O)CCc1cc(O)ccc1-c1ccc(-c2cccnc2)c(CO)c1 is ____. 46 to 48 °C

###

Listed here: items and their measured melting point.

compound	measure name	result
C#CCN1CCN(C(C)=O)CC1	melting point	63 to 65 °C
CC(=O)Oc1ccccc1C(=O)SC(C)C(=O)NCC(=O)O (stereo not drawn)	melting point	100 to 102 °C
CC(=O)Nc1ccc(O)cc1Cl	melting point	128 to 129 °C
Cc1oc(-c2ccccc2)nc1COc1cccc(N)c1	melting point	89 to 90 °C
O=C(O)c1ccccc1C(=O)C=Cc1cc(O)c(O)c([N+](=O)[O-])c1	melting point	178 to 180 °C
CC(C)(C)c1cc(CCc2ccccc2NC(=O)NCCN2CCOCC2)cc(C(C)(C)C)c1O	melting point	166 to 167 °C
CC(=O)NCCn1ccc2c1-c1c(Cl)cccc1CC2	melting point	146 to 147 °C
COC(=O)Cc1cc(N)n(-c2ccccn2)n1	melting point	84 to 85 °C
Cc1ccccc1Oc1cccc2c1OC(=O)C2	melting point	110 to 111 °C
O=C(OCc1snc(Cl)c1Cl)c1ccccc1	melting point	79 to 80 °C

Fill blank: measured melting point of the compound CCN(C)c1nc2sc3c(NCCN4CCOCC4)ncnc3c2c2c1CCC(C)(C)C2 is ____. 144 °C

Fill blank: measured melting point of the compound COc1cc(-c2nc3ccc(OCCCN4CCCCC4)cc3n2Cc2ccccc2)cc(OC)c1OC is ____. 92 °C

Fill blank: measured melting point of the compound CCOC(=O)C1=C(C)NC(CCN(C)C)=C(C(=O)OCC)C1c1ccccc1/C=C(\C)C(=O)OCC (stereo not drawn) is ____. 109 °C
